tested on: soybean; test: Test C pre-/postemergence test; assay type: in vivo, Glycine max; details: Postemergence, 62 g ai/ha
Listed here: items and their measured Plant response rating (0 to 100), Soybean.

See these solved cases before continuing.
> print(dat)
                                   compound  data.value
1  CC(c1c(C(F)(F)F)nn(C)c1Cl)S(=O)(=O)c1ccc(Cl)c[n+]1[O-] (racemic) [Compound 40]           0
2  CC(Oc1c(CS(=O)(=O)c2cccc[n+]2[O-])c(C(F)(F)F)nn1C)C(F)(F)F (centres unmarked) [Compound 82]           0
3  Cn1nc(C(F)(F)F)c(C[S+]([O-])c2ccc(Cl)c[n+]2[O-])c1OCC(F)(F)F (racemic) [Compound 62]          50
4  CCn1nc(C(F)(F)F)c(C[S+]([O-])c2cccc[n+]2[O-])c1OCC(F)(F)F (racemic) [Compound 65]          50

For Cc1cc[n+]([O-])c([S+]([O-])Cc2c(C(F)(F)F)nn(C)c2OC(F)F)c1 (centres unmarked) [Compound 1] , what is its reported Plant response rating (0 to 100), Soybean? 85

* * *

test system: duck salad; experiment: Test C flooded paddy test; format: in vivo, Heteranthera limosa; settings: Flood, 250 g ai/ha; scale 0 to 100, 0 no effect, 100 complete control; 13 to 15 days
REPORTED_PROPERTY: Plant response rating, Ducksalad
Lab note: jot the number down without any unit.

> print(dat)
                                   molecule  tested.target  data.value
1  Cc1cc[n+]([O-])c([S+]([O-])Cc2c(C(F)(F)F)nn(C)c2OCC(F)F)c1 (stereo not drawn)     duck salad         100
2  Cn1nc(C(F)(F)F)c(CS(=O)(=O)c2cccc[n+]2[O-])c1OCC(F)F     duck salad          75

Alright, here's another molecule for you.
For [O-][n+]1ccccc1[S+]([O-])C(Cl)c1c(C(F)(F)F)nn(CC(F)(F)F)c1Cl (stereo not drawn) , what is its reported Plant response rating, Ducksalad? 75

* * *

tested on: itchgrass; experiment: Test F preemergence test; assay type: in vivo, Rottboellia cochinchinensis; conditions: 62 g ai/ha, Preemergence; scale 0 to 100
REPORTED_PROPERTY: Itchgrass plant response rating
Lab note: jot the number down without any unit.

See these solved cases before continuing.
> print(dat)
                                   molecule                reported.property  data.value
1  Cn1nc(C(F)(F)F)c(CS(=O)(=O)c2cccc[n+]2[O-])c1OC(F)F  Itchgrass plant response rating         100
2  Cc1cc[n+]([O-])c(S(=O)(=O)C(C)c2c(C(F)(F)F)nn(C)c2OC(F)F)c1 (stereo not shown)  Itchgrass plant response rating          70
3  Cc1cc[n+]([O-])c(S(=O)(=O)Cc2c(C(F)(F)F)nn(C)c2Cl)c1  Itchgrass plant response rating          25

For Cc1cc[n+]([O-])c([S+]([O-])Cc2c(C(F)(F)F)nn(C)c2Cl)c1 (racemic) , what is its reported Itchgrass plant response rating? 70

* * *

test system: Italian ryegrass; experiment: Test C pre-/postemergence test; format: in vivo, Lolium multiflorum; conditions: Preemergence, 31 g ai/ha; scale 0 to 100 (0 no effect, 100 complete control)
Listed here: items and their measured Plant response rating, Ryegrass, Italian.
Lab note: jot the number down without any unit.

For Cn1nc(C(F)(F)C(F)(F)F)c(C[S+]([O-])c2ccc(Cl)c[n+]2[O-])c1OCC(F)(F)F (centres unmarked) , what is its reported Plant response rating, Ryegrass, Italian? 60

For Cc1cc[n+]([O-])c(S(=O)(=O)C(Cl)c2c(C(F)(F)F)nn(C)c2Cl)c1 (racemic) , what is its reported Plant response rating, Ryegrass, Italian? 0

For Cn1nc(C(F)(F)F)c(C[S+]([O-])c2ccc(F)c[n+]2[O-])c1Cl (centres unmarked) , what is its reported Plant response rating, Ryegrass, Italian? 0
